Data provenance: patent US5667764A

# Test system: membrane ghosts
# protocol-description: Membrane binding stability (MBS) assay in membrane ghosts with 5% albumin
# assay-context: 24 hours, Table II
measured-attribute: MBS (% of max.)

| smiles-input | measured-target | result |
| --- | --- | --- |
| CCCCCCCCCCCCCCCCCCCCCC[N+]1=C(C=CC=C2N(CCCCCCCCCCCC)c3ccccc3C2(C)C)C(C)(C)c2ccccc21 | membrane ghosts | 48 ± 3.1 % of max. |

The reported value for CCCCCCCCCCCCCC[N+]1=C(C=CC=C2N(CCC)c3ccccc3C2(C)C)C(C)(C)c2ccccc21 in terms of MBS (% of max.) is 41 ± 5.0 % of max.
